molecular target: UniProt:P55072; assay: p97 ATPase assay (Kinase Glo Plus; biomol green for compounds that interfere with luciferase); type: biochemical; details: purified p97, ATP, 60 min room temperature; mean +/- standard error
The molecules listed here are annotated with their log10 of IC50.
Parameter value (number): base-10 log of IC50 in µM.

Look over these answered cases.
                                   molecule  target_under_test       property  endpoint_result
0  c1ccc(CNc2nc(N3CCOc4ccccc43)nc3c2CCCC3)cc1 [VIII]     UniProt:P55072  log10 of IC50            -0.96
1  COc1ccc(-c2cccc3c(NCc4ccccc4)nc(N4CCOc5ccccc54)nc23)cc1 [VII-11]     UniProt:P55072  log10 of IC50             0.04

For the molecule shown here, Cc1cc(F)cc(Nc2nc(NCc3ccccc3)c3ccccc3n2)c1 [V-3] , give the reported log10 of IC50.
-0.15

====

molecular target: p97 (Homo sapiens, UniProt P55072); assay: p97 ATPase assay (Kinase Glo Plus; biomol green for compounds that interfere with luciferase); assay type: biochemical; details: purified p97, ATP, 60 min room temperature; mean +/- standard error
Sequence (P55072 2-806 limits assumed): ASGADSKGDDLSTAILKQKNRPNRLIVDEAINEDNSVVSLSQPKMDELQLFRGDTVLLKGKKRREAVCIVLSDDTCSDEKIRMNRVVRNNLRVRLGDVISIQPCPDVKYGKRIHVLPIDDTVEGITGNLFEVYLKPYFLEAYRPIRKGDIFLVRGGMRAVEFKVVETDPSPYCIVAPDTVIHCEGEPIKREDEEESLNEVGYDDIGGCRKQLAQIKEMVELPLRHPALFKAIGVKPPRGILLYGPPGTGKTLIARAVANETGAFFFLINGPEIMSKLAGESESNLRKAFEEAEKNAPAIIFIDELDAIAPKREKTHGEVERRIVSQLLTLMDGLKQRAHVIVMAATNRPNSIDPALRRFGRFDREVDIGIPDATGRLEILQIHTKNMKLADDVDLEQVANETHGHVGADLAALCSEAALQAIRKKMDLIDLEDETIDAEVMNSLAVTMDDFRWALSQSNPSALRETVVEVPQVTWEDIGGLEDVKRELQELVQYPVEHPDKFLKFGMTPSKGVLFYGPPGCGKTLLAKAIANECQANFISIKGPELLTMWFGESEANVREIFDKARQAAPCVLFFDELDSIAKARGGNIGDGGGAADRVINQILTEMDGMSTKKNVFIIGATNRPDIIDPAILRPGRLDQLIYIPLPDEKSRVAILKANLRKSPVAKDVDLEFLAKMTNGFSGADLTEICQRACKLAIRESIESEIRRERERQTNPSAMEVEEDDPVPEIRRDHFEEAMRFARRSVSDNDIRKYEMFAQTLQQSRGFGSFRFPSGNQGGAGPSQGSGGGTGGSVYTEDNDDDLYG
Category | rule: reported IC50 within range, see bottom end = under 2 µM, midrange = from 2 µM up to 4 µM, top end = 4 µM and over

Solved entries:
                                        smi  assigned_category
0  COc1ccc(CNc2nc(Nc3cccc(Cl)c3)nc3ccccc23)cc1           midrange
1   Fc1ccc2nc(NCc3ccccc3)nc(NCc3ccccc3)c2c1            top end
2  COc1cccc2c(NCc3ccccc3)nc(Nc3ccccc3O)nc12           midrange
3  COc1cccc2c(NCc3ccccc3)nc(NCC3CCCCC3)nc12            top end
4  Fc1ccc(Cl)cc1Nc1nc(NCc2ccccc2)c2ccccc2n1            top end

Form: Item = Clc1ccc(Nc2nc(NCc3ccccc3)c3ccccc3n2)cc1Cl ; Class = ?
top end

Bin? Fc1ccccc1CNc1nc(NCc2ccccc2)c2ccccc2n1
midrange

Which class holds COc1cccc2c(NCc3ccccc3)nc(N3CCNc4ccccc43)nc12 ?
bottom end

====

target: p97 (Homo sapiens, UniProt P55072); experiment: p97 ATPase assay (Kinase Glo Plus; biomol green for compounds that interfere with luciferase); assay type: biochemical; settings: purified p97, ATP, 60 min room temperature; mean +/- standard error
Property: IC50 (µM)
# output: bare number, implied unit µM

In [3]: df
Out[3]:
                                        smi  property  result_units  endpoint_result
0  Clc1ccc(CNc2nc(Nc3cccc(Cl)c3)nc3ccccc23)cc1      IC50            µM              2.8

Look up IC50 for this compound: COc1cccc2c(NCc3ccccc3)nc(N3CCc4ccccc4C3)nc12
15

If you can, please state the reported IC50 value of Clc1ccc(-c2nc(NCc3ccccc3)c3ccccc3n2)cc1 .
5.5

Reported IC50 for Brc1cccc(Nc2nc(NCc3ccccc3)c3ccccc3n2)c1 : what is it?
2.5

====

Biological target: p97 (Homo sapiens)
Assay: p97 ATPase assay (Kinase Glo Plus; biomol green for compounds that interfere with luciferase)
Assay type: biochemical
Settings: purified p97, ATP, 60 min room temperature; mean +/- standard error
Protocol: Assay Buffer (20 μL of 2.5× concentration, where 1×=50 mM Tris pH 7.4, 20 mM MgCl2, 1 mM EDTA, 0.5 mM TCEP) was dispensed into each well of a 96 well plate. […] Luminescence was read on an Analyst AD (Molecular Devices). […] The percent of remaining activity for each reaction was calculated using the following mathematical expression: ((Test Compound-High Control)/(Low Control-High Control))*100. […] The result was expressed as mean +/− standard error. […]
Quick list: IC50 per entry.
# number only, unit µM dropped from output

Solved cases below.
                                   compound  property  endpoint_result
0  COc1ccccc1CNc1nc(Nc2cccc(Cl)c2)nc2ccccc12 [III-10]      IC50              1.6
1  Cc1ccc(CNc2nc(Nc3cccc(Cl)c3)nc3ccccc23)cc1 [III-1]      IC50              1.4
2  Cc1ccc(Nc2nc(NCc3ccccc3)c3ccccc3n2)cc1 [II-2]      IC50              2.2
3  Cc1cccc(-c2nc(NCc3ccccc3)c3ccccc3n2)c1 [I-5]      IC50              4.2

Can you look up the measured IC50 of Cc1ccccc1Nc1nc(NCc2ccccc2)c2ccccc2n1 [II-7] for me?
3.4

====

biological target: p97 (Homo sapiens); assay: p97 ATPase assay (Kinase Glo Plus; biomol green for compounds that interfere with luciferase); assay type: biochemical; conditions: purified p97, ATP, 60 min room temperature; mean +/- standard error
Overview of recorded IC50 for various compounds
Report the figure in µM without appending any unit label.

Use the examples below as a reference point.
In [3]: df
Out[3]:
                                   compound  endpoint_result
0  Cc1ccc(Cl)cc1Nc1nc(NCc2ccccc2)c2ccccc2n1 [V-9]              0.8
1  COc1cccc(CNc2nc(Nc3cccc(Cl)c3)nc3ccccc23)c1 [III-15]                1
2  COc1cccc2c(NCc3cccs3)nc(N3CCOc4ccccc43)nc12 [XII-5]              1.2
3    CC(C)c1ccc(Nc2nc(N)nc(CCl)n2)cc1 [XIV]               15
4  CCN(CC)CCOc1cccc2c(NCc3ccccc3)nc(N3CCOc4ccccc43)nc12 [VII-10]              0.4
5  COc1cccc2c(NCC3CCCCC3)nc(N3CCOc4ccccc43)nc12 [XII-6]              7.4
6  c1ccc(CNc2nc(-c3ccccc3)nc3ccccc23)cc1 [I-2]              4.2
7  Cc1c(Cl)cccc1Nc1nc(NCc2ccccc2)c2ccccc2n1 [V-5]              0.7

Query (compound): Cc1ccc(F)cc1Nc1nc(NCc2ccccc2)c2ccccc2n1 [V-6] ; field requested: IC50
0.8

Query (compound): COc1ccc(CNc2nc(-c3ccc(OC)cc3)nc3ccccc23)cc1 [I-20] ; field requested: IC50
13

Report IC50 for c1ccc(CNc2nc(N3CCNc4ccccc43)nc3ccccc23)cc1 [VII-4] please.
0.4

I'd like to know its IC50. The compound in question is COc1cccc2c(NCc3ccccc3)nc(NCc3ccccc3)nc12 [VI-5]
0.6

Which IC50 reading was recorded for the compound Cc1nc(N2CCOc3ccccc32)nc(NCc2ccccc2)c1C [X] ?
1.1

So what's the measured IC50 for this one? Cc1ccc(-c2nc(NCc3ccccc3)c3ccccc3n2)cc1 [I-10]
5.7

Please look up its IC50: Nc1nc(CCl)nc(Nc2ccc(Cl)c(Cl)c2)n1 [XVII]
15

I am curious: what IC50 value has been reported for Clc1ccc(CNc2nc(NCc3ccccc3)c3ccccc3n2)cc1 [IV-2] ?
3.1

IC50 lookup needed for COc1ccc(Cl)cc1Nc1nc(NCc2ccccc2)c2ccccc2n1 [V-10] , thanks.
1.1

====

Examples of molecules with documented IC50 follow.
biological target: p97 (Homo sapiens); test: p97 ATPase assay (Kinase Glo Plus; biomol green for compounds that interfere with luciferase); type: biochemical; conditions: purified p97, ATP, 60 min room temperature; mean +/- standard error
Report only the number, with the unit µM understood.

// map Clc1cccc(Nc2nc(NCc3ccccc3Br)c3ccccc3n2)c1 [III-9] to recorded IC50 (system: p97 (Homo sapiens))
4

Any idea what IC50 came out for Nc1nc(CCl)nc(N(c2ccccc2)c2ccccc2)n1 [XIII] on p97 (Homo sapiens)?
13

Item: Clc1ccccc1CNc1nc(NCc2ccccc2)c2ccccc2n1 [IV-7] Test system: p97 (Homo sapiens) Read-out: IC50 Value: ?
5.3

Please tell me: IC50 of COc1cccc2c(NCc3ccccc3)nc(NCc3cncs3)nc12 [XI-15] , system p97 (Homo sapiens)?
11

Notebook entry, p97 (Homo sapiens) assay: IC50 of COc1cccc2c(NCc3ccccc3)nc(-n3c(=O)oc4ccccc43)nc12 [VII-17] = ?
0.11

Please state recorded IC50 (tested on p97 (Homo sapiens)) of Clc1ccc(CNc2nc(NCc3ccccc3)c3ccccc3n2)cc1Cl [IV-17]
3
